tested on: OVCAR-5 ovarian; test: NCI tumour cell line growth inhibition, 48 h; in the data active = GI50 below about 0.43 µM; inactive = the rest
Result category, one only: T for active, F for inactive

N#C/C(C(=S)Nc1ccccc1)=C1/NN=C2c3ccccc3C(=O)NN21    F
NCCCCn1c2c(c3ccccc3c1=O)C(=O)c1ccccc1-2    F
C[C@]12CC[C@@H]3c4ccc(Oc5nc(N6CC6)nc(N6CC6)n5)cc4CC[C@H]3[C@@H]1CCC2=O    F
CCCCC/C=C/C/C=C/CCCCCCCC1=NC(C)(C)CN1C(C)C    F
CCCCNC(=O)NS(=O)(=O)c1ccc(N2N=C(c3ccc(C)cc3C)CC2c2ccc(N(C)C)cc2)cc1 (centres undefined)    F

// switching to the query molecule
Can you look up the reported call for "COc1cc(-c2c(C#N)c(N)n3c(nc4ccccc43)c2C#N)cc(Br)c1OC" for me? F

----------
test system: CCRF-CEM leukemia
Form entry, call: pick from label 1 = active, label 0 = inactive

As a guide, the following entries are already answered.
CCCCNC(=O)NS(=O)(=O)c1ccc(N2N=C(c3ccc(C)cc3C)CC2c2ccc(N(C)C)cc2)cc1 (stereo not drawn)    label 0
CN1C(NC(=O)c2ccc(Cl)nc2)=NS(=O)(=O)c2cc(Cl)ccc21    label 0

Dear all, I need the recorded test outcome for COc1ccc(C2CC(=O)c3c(OC)cc(OC)cc3O2)cc1 (stereo not drawn) , thank you. label 0

For this molecule, state the assay outcome: "COc1ccc2cc(C(=O)/C=C/c3cccc(OC)c3OC)ccc2c1" label 0

Would you mind telling me which call this test gave COc1ccc(OC(=O)O[C@H]2[C@H](O[C@H]3[C@@H](O)COC(O[C@H]4C[C@H]5[C@@H]6CC=C7C[C@@H](O)CC[C@]7(C)[C@H]6CC[C@]5(C)[C@H]4[C@H](C)C(=O)CCC(C)C)[C@@H]3OC(C)=O)OC[C@@H](O)[C@@H]2O)cc1 (stereo partly drawn) ? label 1

What did this assay record as the result for CCCCCCCCCCC(O)C1CCC(C2CCC(C(O)CCCCC(O)CCCCCC(O)CC3=CC(C)OC3=O)O2)O1 (stereo not drawn) ? label 0

// return assay outcome for "COc1ccc(S(=O)(=O)N(Cc2ccc3c(n2)C=CC(C)(C)O3)C2CCC2)cc1OC" label 1

Test call, this molecule: "CCCCn1c(-c2ccc(C(=O)O/N=C(\N)c3ccc(OC)cc3)cc2)nc(-c2ccccc2)c1-c1ccccc1" label 0

----------
tested on: K-562 leukemia; assay: NCI tumour cell line growth inhibition, 48 h; in the data active = GI50 below about 0.43 µM; inactive = the rest
Lab note: assign the record to one of YES = active, NO = inactive

COc1cc(Cn2c(-c3ccccc3)cc3c2-c2oncc2CC3)cc(OC)c1OC    YES
COc1cc2c3c(n(CCCCl)c(=O)c2cc1OC)-c1ccccc1C3=O    NO
N#C/C(C(=S)Nc1ccccc1)=C1/NN=C2c3ccccc3C(=O)NN21    NO
CC(C)=[CH][Sb]([Br])([CH]=C(C)C)([CH]=C(C)C)[CH]=C(C)C    NO
Nc1nccc(-c2c(-c3ccc(F)cc3)ncn2CCCN2CCOCC2)n1    NO

Call for entry "Cc1[nH]c(N=Nc2ccccc2)nc1N=Nc1ccccc1" : NO

----------
test system: RXF 393 renal; assay: NCI tumour cell line growth inhibition, 48 h
TGI reference

Worked cases, answers included:
CN1CCC(OC(=O)Oc2ccccc2)(c2ccccc2)CC1    > 100 µM
COc1ccc(-c2cc3c(nn2)-c2ccccc2C3=O)cc1    > 100 µM
COc1cc2c(/C=C3/C(=O)Nc4cccc(Cl)c43)c(Cl)n(Cc3ccccc3)c2cc1C    > 29 µM
O=C(c1ccc(Cl)cc1Cl)N(C(=O)N1CCCCC1)c1ccccc1    > 100 µM
Cn1cc(-c2csc(-c3cccc(F)c3)n2)c2cccnc21    34.4 µM

Give TGI for CC[C@@H]1/C=C/C=C/C[C@H](C)[C@@H](O)[C@](C)(O)C(=O)[C@H](C)[C@@H](O)[C@H](C)C(=O)[C@H](C)[C@@H](O)[C@H](C)/C=C/C(=O)O[C@H]2[C@@H](C)[C@@H](CC1)O[C@]1(O[C@H](CC(C)O)[C@H](C)CC1=O)[C@@H]2C (stereo partly drawn) 7.37 µM

Give the reported value of TGI for this record: "C#CC[C@]12CC(=O)CC[C@H]1CC(=O)C2" > 100 µM

Tell me TGI reported for COc1cc([C@@H]2c3cc4c(cc3C(O[C@@H]3O[C@@H]5CO[C@@H](c6cccs6)OC5[C@H](O)[C@H]3O)C3COC(=O)[C@@H]32)OCO4)cc(OC)c1O (stereo partly drawn) 0.534 µM
